All values here come from patent US20230233569A1.

Recorded IC50 by entry
- Target of assay: KRAS WT (Homo sapiens, UniProt P01116+P62937)
- Sequence (P01116 1-169 isoform P01116-2 limits assumed): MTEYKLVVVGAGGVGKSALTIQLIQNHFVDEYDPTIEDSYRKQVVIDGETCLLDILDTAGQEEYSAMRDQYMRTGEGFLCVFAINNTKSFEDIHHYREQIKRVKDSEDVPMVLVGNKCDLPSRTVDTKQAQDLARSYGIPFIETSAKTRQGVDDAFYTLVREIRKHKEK
- Sequence (P62937 whole entry): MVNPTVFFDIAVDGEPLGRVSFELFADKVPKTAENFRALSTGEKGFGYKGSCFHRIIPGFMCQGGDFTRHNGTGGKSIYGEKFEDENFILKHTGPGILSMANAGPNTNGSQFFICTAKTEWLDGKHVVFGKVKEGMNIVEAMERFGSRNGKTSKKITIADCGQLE
- Experiment: Disruption of BRAF RBD interaction with Ras (FRET / MOA assay, with Cyclophilin A)
- Format: biochemical
- Applied conditions: KRAS WT; read-out: KRAS WT FRET data IC50

Worked cases, IC50 given:
Given smiles	Target of assay	IC50
CCN(C(=O)N(C)[C@H](C(=O)N[C@H]1Cc2nc(cs2)-c2ccc3c(c2)c(c(-c2cccnc2[C@H](C)OC)n3CC)CC(C)(C)COC(=O)[C@@H]2CCCN(N2)C1=O)C(C)C)C(C)C	KRAS WT (Homo sapiens, UniProt P01116+P62937)	10 to 100 nM
C=CC(=O)N1CC[C@H](C(=O)N(C)[C@H](C(=O)N[C@H]2Cc3cc(O)cc(c3)-c3ccc4c(c3)c(c(-c3ccccc3N3CCOCC3)n4CC)CC(C)(C)COC(=O)[C@@H]3CCCN(N3)C2=O)C(C)C)C1	KRAS WT (Homo sapiens, UniProt P01116+P62937)	> 10000 nM
CCn1c(-c2cccnc2[C@H](C)OC)c2c3cc(ccc31)-c1cc(O)cc(c1)C[C@H](NC(=O)[C@H](C(C)C)N(C)C(=O)OC1CC1)C(=O)N1CCC[C@H](N1)C(=O)OCC(C)(C)C2	KRAS WT (Homo sapiens, UniProt P01116+P62937)	100 to 1000 nM
C=CC(=O)N1CC[C@H](C(=O)N(C)[C@H](C(=O)N[C@H]2Cc3cccc(c3)-c3ccc4c(c3)c(c(-c3cc(CN(C)C)cnc3[C@H](C)OC)n4CC)CC(C)(C)COC(=O)[C@@H]3CCCN(N3)C2=O)C(C)C)C1	KRAS WT (Homo sapiens, UniProt P01116+P62937)	> 10000 nM

Now look at this one.
Value lookup for IC50; key = C=CC(=O)N1CC2(CCN([C@H](C(=O)N[C@H]3Cc4cc(O)cc(c4)-c4ccc5c(c4)c(c(-c4ccccc4CCOC)n5CC)CC(C)(C)COC(=O)[C@@H]4CCCN(N4)C3=O)C(C)C)C2=O)C1
1000 to 10000 nM

----------
- Target of assay: NRAS G12C (Homo sapiens, UniProt P01111+P62937, G12C)
- Sequence (P01111 whole entry G12C, one chain of several): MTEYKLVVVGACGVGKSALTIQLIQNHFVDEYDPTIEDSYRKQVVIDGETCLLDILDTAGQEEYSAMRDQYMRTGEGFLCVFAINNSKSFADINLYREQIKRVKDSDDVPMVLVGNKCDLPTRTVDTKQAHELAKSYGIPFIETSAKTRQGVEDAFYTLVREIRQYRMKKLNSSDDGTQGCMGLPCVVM
- Experiment: Ras-Raf disruption / FRET / MOA assay (BRAF RBD)
- Assay type: biochemical
- Applied conditions: NRAS G12C; read-out: NRAS G12C FRET data IC50
- Excerpt: Disruption of […] Ras-binding Domain (BRAF^RBD) Interaction with K-Ras by Compounds of the Invention (also Called a FRET Assay or an MOA Assay) Note—The following protocol describes a procedure for monitoring disruption of K-Ras G12C (GMP-PNP) binding to BRAF^RBD by a compound of the invention. This protocol may also be executed substituting other Ras proteins or nucleotides, such as K-Ras G12D and K-Ras G13D. […]
pIC50: −log10 of the molar value.
Property name: pIC50

Molecule	Property name	Observed
CCn1c(-c2cccnc2[C@H](C)OC)c2c3cc(ccc31)-c1csc(n1)C[C@H](NC(=O)[C@H](C(C)C)N(C)C(=O)N1CCN(C(=O)[C@@H]3CN3)C[C@H]1C)C(=O)N1CCC[C@H](N1)C(=O)OCC(C)(C)C2	pIC50	7.00 to 8.00

Can you look up the measured pIC50 of CCn1c(-c2cccnc2[C@H](C)OC)c2c3cc(ccc31)-c1cc(O)cc(c1)C[C@H](NC(=O)[C@H](C(C)C)N(C)C(=O)C1CC3(C1)CN(C(=O)[C@H]1CN1)C3)C(=O)N1CCC[C@H](N1)C(=O)OCC(C)(C)C2 for me?
7.00 to 8.00

Given the molecule CCn1c(-c2cccnc2[C@H](C)OC)c2c3cc(ccc31)-c1cc(O)cc(c1)C[C@H](NC(=O)[C@H](C(C)C)N(C)C(=O)[C@H]1CN1)C(=O)N1CCC[C@H](N1)C(=O)OCC(C)(C)C2 , what is its reported pIC50?
6.00 to 7.00

pIC50 for CCn1c(-c2cccnc2[C@H](C)OC)c2c3cc(ccc31)-c1cc(O)cc(c1)C[C@H](NC(=O)[C@H](C(C)C)N(C)C(=O)c1ncc(NC(=O)[C@@H]3CN3)n1C)C(=O)N1CCC[C@H](N1)C(=O)OCC(C)(C)C2 ?
7.00 to 8.00

Which pIC50 value belongs to CCn1c(-c2cccnc2[C@H](C)OC)c2c3cc(ccc31)-c1cc(O)cc(c1)C[C@H](NC(=O)[C@H](C(C)C)N(C)C(=O)N1CCN(C(=O)[C@H]3CN3)CC1=O)C(=O)N1CCC[C@H](N1)C(=O)OCC(C)(C)C2 (atropisomer, axis not shown) ?
7.00 to 8.00
